Every entry's value here was drawn from patent US10449208B2.

- EXPERIMENTAL PROTOCOL: Prodrug stability assay in bio-relevant media (FaSSIF with Pancreatin, simulated gastrointestinal tract conditions)
- Type: in vitro ADME
- EXPERIMENTAL CONDITIONS: % parent prodrug remaining at 5 h vs 0 h, 37° C., 0.5 mg/mL Pancreatin in FaSSIF, HPLC area ratio
MEASUREMENT KIND: GI Tract stability (%)

As a guide, the following entries are already answered.
{"columns": ["COMPOUND", "QUANTITY UNIT", "GI Tract stability"],
 "data": [
  ["CCCCCOC(=O)COP(=O)(CO[C@H](C)Cn1cnc2c(N)ncnc21)NC(C)(C)C(=O)OC(C)C (single isomer, unassigned) [Example 8A]", "%", 94.11],
  ["CC(C)OC(=O)[C@@H](C)OP(=O)(CO[C@H](C)Cn1cnc2c(N)ncnc21)NC(C)(C)C(=O)OC(C)C (stereo partly shown)", "%", 7.19],
  ["CCCCCOC(=O)C(C)(C)NP(=O)(CO[C@H](C)Cn1cnc2c(N)ncnc21)OCC(=O)OC(C)C (single isomer, unassigned) [Example 4A]", "%", 99.07]
]}

A = CCCCOC(=O)C(C)(C)NP(=O)(CO[C@H](C)Cn1cnc2c(N)ncnc21)O[C@@H](C)C(=O)OC(C)C (stereo partly shown)
B = CCCCCCOC(=O)C(C)(C)NP(=O)(CO[C@H](C)Cn1cnc2c(N)ncnc21)O[C@@H](C)C(=O)OC(C)C (single isomer, unassigned) [Example 7A]
**Q:** Could you point out whether the larger GI Tract stability belongs to A or to B ? Answer format: the label of the selected item.
**A:** A
(A: 79.61%, B: 15.36%)

1 = CCCOC(=O)C(C)(C)NP(=O)(CO[C@H](C)Cn1cnc2c(N)ncnc21)OCC(=O)OC(C)C (stereo partly shown)
2 = CCCCCCOC(=O)C(C)(C)NP(=O)(CO[C@H](C)Cn1cnc2c(N)ncnc21)O[C@H](C)C(=O)OC(C)C (single isomer, unassigned)
**Q:** Compare reported GI Tract stability values for 1 and 2 . Which is lower? Answer format: the label of the selected item.
**A:** 2
(2: 6.16%, 1: 99.36%)
